Below is a list of entries, each paired with its recorded pIC50 value.
Target or test system: UniProt:P08246
Sequence (P08246 30-267): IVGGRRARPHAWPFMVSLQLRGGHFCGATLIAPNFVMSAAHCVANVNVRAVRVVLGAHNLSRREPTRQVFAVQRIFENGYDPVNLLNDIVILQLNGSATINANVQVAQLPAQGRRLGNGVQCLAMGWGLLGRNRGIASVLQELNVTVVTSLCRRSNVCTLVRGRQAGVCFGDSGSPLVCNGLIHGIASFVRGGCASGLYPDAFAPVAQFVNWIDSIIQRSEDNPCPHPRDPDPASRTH
pIC50: −log10 of the molar value. Structures can show the parent of a compound that is named as a salt.
Result type: pIC50

Compound: CC(C)[C@@H](C=O)NC(=O)[C@H](C)NC(=O)[C@H](CCCCNC(=O)CCC(=O)O)NS(=O)(=O)C12CC3CC(CC(C3)C1)C2
Observed measurement: 6.92
--
Compound: CC(C)[C@@H](C=O)NC(=O)[C@@H]1CCCN1C(=O)[C@H](CCCCNC(=O)c1ccc(C(=O)O)cc1)NS(=O)(=O)C12CC3CC(CC(C3)C1)C2
Observed measurement: 7.22
--
Compound: CC(C)CNC(=O)[C@@H]1CCCN1C(=O)[C@H](CCCCNC(=O)CCC(=O)O)NCCC12CC3CC(CC(C3)C1)C2
Observed measurement: 5.35
--
Compound: CC(C)[C@@H](C=O)NC(=O)[C@@H]1CCCN1C(=O)[C@H](CCCCNC(=O)CCC(=O)O)NS(=O)(=O)C12CC3CC(CC(C3)C1)C2
Observed measurement: 7.10
--
Compound: CC(C)[C@@H](C=O)NC(=O)[C@H](C)NC(=O)[C@H](CCCCNC(=O)c1ccc(C(=O)O)cc1)NS(=O)(=O)C12CC3CC(CC(C3)C1)C2
Observed measurement: 7.30
--
Compound: CC(C)CNC(=O)[C@@H]1CCCN1C(=O)[C@H](CCCCNC(=O)CC[C@H](N)C(=O)O)NCCC1CCC2CC1C2(C)C (stereo partly drawn) [dihydrobromide]
Observed measurement: 4.80

Recorded values, source patent US4623639A.
